Test system: SK-MEL-28 melanoma
Experiment: NCI-60 one-dose screen, 48 h
Settings: 10 µM unless noted
Compounds without any hit were thinned out: in the full panel of roughly 83,000, 20% have a hit. Active and inactive are the calls of the source. Rule for the calls: active = growth percent below 10; inactive = the rest.
Please reply with one of these outcomes: 1 for active, 0 for inactive

Example entries begin here.
- Compound: "CNC(=O)c1cc(Oc2ccc3nc(NC(=O)c4ccc(CN5CCN(C)CC5)c(C(F)(F)F)c4)sc3c2)ccn1"
  Answer Label: 1
- Compound: "CCCC(=O)NC(c1cccnc1)c1cc(C(C)=O)c2cccnc2c1O (centres undefined)"
  Answer Label: 0
- Compound: "CN1CCN(c2ccc(C(=O)Nc3cccc(-c4cn(-c5ccc(S(N)(=O)=O)cc5)nn4)c3)cc2C(F)(F)F)CC1"
  Answer Label: 0
- Compound: "CC(C)SC1=NC(=C(C(=N1)NC2=ClC=CC=C2)C#N)C3=CC=CC=C3"
  Answer Label: 0
- Compound: "O=C(/C=C/Nc1ccc(S(=O)(=O)O)cc1)c1ccc(F)cc1"
  Answer Label: 0
- Compound: "O=C(Nc1cccc(Cl)c1)Nc1nc2ccc(-c3cccc4ccccc34)cc2s1"
  Answer Label: 0

[Q] Test call for this compound, please: CC(C)C(=O)Nc1ccc(-c2nc(-c3cccc(O)c3)c(-c3ccnc(Br)c3)[nH]2)cc1
[A] 0

[Q] Record lookup: outcome of this test for O=C1[C@@H]2Cc3c([nH]c4ccccc34)[C@H](c3c(Cl)cccc3Cl)N2C(=O)CN1C1CCN(Cc2ccccc2)CC1 ?
[A] 0

[Q] Dear all, I need the recorded test outcome for CC(=O)c1ccc(NC(=O)COc2ccc(C3SCC(=O)N3c3ccc(Br)cc3)cc2)cc1 (centres undefined) , thank you.
[A] 0

====

System: UACC-62 melanoma
Experiment: NCI-60 one-dose screen, 48 h
Conditions: 10 µM unless noted
Procedure: Growth inhibition of the UACC-62 human tumor cell line is measured as a screen for anti-cancer activity. Cells are grown in 96 well plates and exposed to the test compound for 48 hours. Compounds are tested at a single concentration, which is 10^-5 M for most compounds. The reported endpoint is percent growth (GI% or GIPRCNT), where numbers from 0 - 100% represent growth inhibition, and numbers from -100% - 0 represent cell death. For example, a value of 40 represents 60% growth inhibition. […]
The panel holds about 83,000 compounds, 20% with a hit somewhere; the sample as a whole holds those more often. The source made the active and inactive calls. Rule for the calls: active = growth percent below 10; inactive = the rest.
Your answer must be one of the following: active, inactive

Previously resolved entries follow.
- Compound: "CCCCOc1ccc(S(=O)(=O)N2CCN(c3nccc(N4CCOCC4)n3)CC2)cc1"
  Experimental Target: "UACC-62 melanoma"
  Answer Label: "active"
- Compound: "COc1cc(C2CC(c3ccc(Nc4nc(NCCO)nc(Nc5ccc(Cl)cc5)n4)cc3)=Nc3c(N)nc(N)nc3N2)cc(OC)c1OC (stereo unspecified)"
  Experimental Target: "UACC-62 melanoma"
  Answer Label: "inactive"

// next entry
[Q] Please share the test call associated with O=C1[C@H]2Cc3c([nH]c4ccccc34)[C@@H](c3c(Cl)cccc3Cl)N2C(=O)CN1C1CCN(Cc2ccccc2)CC1 .
[A] inactive

====

Test system: KM12 colon
Assay: NCI-60 one-dose screen, 48 h (100 = growth as untreated, 0 = no growth, -100 = all killed)
Conditions: 10 µM unless noted
Compounds without any hit were thinned out: in the full panel of roughly 83,000, 20% have a hit.
Attribute Measured: growth (%)
Give bare numbers, in %.

- Compound: "COc1ccc2c(C3=C(c4c[nH]c5ccccc45)C(=O)N(O)C3=O)coc2c1"
  Experimental Target: "KM12 colon"
  Unit Descriptor: "%"
  growth: 97.6

Give one value of growth per listed compound.
1. COC(=O)Nc1ccc(-c2nc(-c3cccc(O)c3)c(-c3ccnc(Br)c3)[nH]2)cc1
2. O=C1CSC(=O)N1Cc1cc2ccccc2nc1Cl

[A]
[50.7, 101]

Would you be so kind as to report growth for each listed record?
1. CN1CCN(c2ccc(NC(=O)Nc3ccc4c(ccn4-c4cccc(C(N)=O)n4)c3)cc2C(F)(F)F)CC1
2. Cc1ccc(NC(=O)c2ccc(CN3CCN(C)CC3)c(C(F)(F)F)c2)cc1Oc1ccc(-c2[nH]nc3ncnc(N)c23)cc1
3. CCC(CC)n1c(=O)c(SC2=NC3C(NN2)N(CC)C(=O)N3CC)c(C(=O)O)c2ccccc21 (configuration not stated)

[A]
[22, 17.7, 20.7]

Hi team, please reply with growth for each item in this list.
1. CC(C)C(=O)Nc1ccc(-c2nc(-c3cccc(O)c3)c(-c3ccnc(Br)c3)[nH]2)cc1
2. CCOC(=O)c1nn(-c2ccccc2)c(=O)c2c(N)c(C#N)c(-c3cccs3)cc12

[A]
1: 43.3; 2: 80.4

Below are some compounds; for each one, tell me its growth.
1. CCOC(=O)C1=C(C)Nc2nc3ccccc3n2C1c1cccc(Br)c1 (configuration not stated)
2. COc1ccc(OC)c(NC2=C(Cl)C(=O)C(C)=C(C)C2=O)c1
3. CCc1ccc(NC(=O)N[C@@H](Cc2cccc(F)c2)C(=O)N[C@@H]2C(=O)N3CCC[C@H]3C(=O)N3CCCC[C@H]3C(=O)N[C@@H](C)C(=O)N3C[C@H](C)C[C@H]3C(=O)O[C@H]2C)c(F)c1
4. O=S(=O)(NCCCNc1nccc(-n2cnc3ccccc32)n1)c1ccc(F)cc1
5. Nc1ccc(-c2nnc(SCc3ccc(O)c4ncccc34)n2-c2ccccc2)cc1
6. O=C(CCCCCCN1CC(=O)N2[C@@H](c3cccc(Cl)c3)c3[nH]c4ccccc4c3C[C@H]2C1=O)NO
7. c1ccc(-c2c(-c3ccccc3)[n+](Cc3ccc4ccccc4c3)c(-c3ccccc3)n2Cc2ccc3ccccc3c2)cc1
8. O=c1[nH]c2cc(Cl)ccc2n1C1CCN(c2ccc3nnc(Cl)n3n2)CC1

[A]
[65.6, 93.8, 33.6, 48.9, 17.8, 54.9, -82.9, 96.5]

Hi! Can you tell me growth for each of these compounds?
1. COc1ccc(/C(C)=C(\c2ccc(Cl)cc2)c2ccc(OCCN)cc2)cc1
2. Nc1ccc(-c2nnc(SCc3ccc(O)c4ncccc34)o2)cc1
3. CCOC(=O)C1=C(C)Nc2nc3ccccc3n2C1c1ccccc1 (configuration not stated)
4. Cn1cc(-c2nn3cc(-c4cccnc4)nc3s2)c2cc(F)ccc21

[A]
78.2
0.48
98.1
76.4

Hi! Can you tell me growth for each of these compounds?
1. C#C[C@]1(O)CC[C@H]2[C@@H]3CC=C4c5sc(Nc6ccc(OC)nc6)nc5CC[C@]4(C)[C@H]3CC[C@@]21C
2. Clc1ccc(-c2nc3ccc(/C(=N\N=C\c4ccccc4)c4ccccc4)cc3[nH]2)cc1
3. C/C(=N\NC(=S)Nc1ccc(Br)cc1)c1cc2ccccc2oc1=O
4. Oc1ccc(-c2nnc(SCc3ccc(O)c4ncccc34)o2)cc1
5. CCN1C/C(=N\S(=O)(=O)c2ccccc2)N(CC)C1=S
6. NC(N)=NS(=O)(=O)c1ccc(N=NC2C(=O)NN(c3ccccc3)C2=O)cc1 (configuration not stated)

[A]
1: 19.6; 2: 82.3; 3: 0.612; 4: 9.65; 5: 103; 6: 103

Field: growth. Fill in for each record below.
1. CCOC(=O)Nc1ccc(-c2nc(-c3cccc(O)c3)c(-c3ccnc(Br)c3)[nH]2)cc1
2. C#CCOc1ccc(/C=N/Nc2nc(-c3cc4cc(Br)cc(Br)c4oc3=O)cs2)cc1
3. CCOc1ccc2nc(NC(=O)Nc3ccccc3C)sc2c1
4. CC1(COc2ccc3ncc(C#Cc4cncc(C(=O)Nc5cc(C(C)(C)C)on5)c4)n3n2)COC1

[A]
1. 22.3
2. 88
3. 40.7
4. 15

Could I get growth for every one of these entries?
1. Fc1ccc(-c2cc3nc(C(Cl)Cl)nc(-c4cccs4)n3n2)cc1
2. O=C(/C=C/c1cccc(O)c1)c1ccc(O)cc1

[A]
[-30.5, 33.4]

====

System: SF-295 CNS
Experiment: NCI-60 one-dose screen, 48 h (100 = growth as untreated, 0 = no growth, -100 = all killed)
Details: 10 µM unless noted
About 83,000 compounds went through this panel and 20% of them were active in at least one assay; those are over-represented in the sample as a whole.
Attribute Measured: growth (%)
Give bare numbers, in %.

- Molecule: "O=C(CSc1ccc(-c2nc3ccccc3[nH]2)cn1)N1CCN(c2ccccc2F)CC1"
  Reading: 61.4
- Molecule: "COc1ccc(-c2oc3cc(O)cc(O)c3c(=O)c2OC)cc1O"
  Reading: -24.1
- Molecule: "CC1(COc2ccc3ncc(C#Cc4cncc(C(=O)Nc5cc(C(C)(C)C)on5)c4)n3n2)COC1"
  Reading: 22.6
- Molecule: "COc1ccc(-c2nc3cc(Cl)c(Cl)cc3n2CC(=O)N=Nc2c(O)[nH]c3ccc(Cl)cc23)cc1"
  Reading: 4.56
- Molecule: "CCC(=O)Nc1ccc(-c2nc(-c3cccc(O)c3)c(-c3ccnc(Br)c3)[nH]2)cc1"
  Reading: 45.8
- Molecule: "N/C(=N\\OC(=O)CSc1nc2ccccc2s1)c1ccc2ccccc2c1"
  Reading: 103
- Molecule: "O=C(Nc1cccc(Cl)c1)Nc1nc2ccc([N+](=O)[O-])cc2s1"
  Reading: -68.9
- Molecule: "Cc1ccc(NC(=O)c2cccc(CN3CCN(C)CC3)c2)cc1Oc1ccc(-c2[nH]nc3ncnc(N)c23)cc1"
  Reading: 78
- Molecule: "Cc1ccc(-c2cc(-c3ccc(N(C)C)cc3)n3c(n2)nc2ccccc23)cc1"
  Reading: 55
- Molecule: "CS(=O)c1nccc(-c2c(-c3ccc(F)c(OCc4ccccc4)c3)nc3sccn23)n1 (centres undefined)"
  Reading: 101

Provide the reported growth of each entry below, same order.
1. C=CCn1c(SCC(=O)Nc2cccc(C(=O)/C=C/c3cc(OC)c(OC)c(OC)c3)c2)nc2ccccc2c1=O
2. CN(C)C(=O)C1=NC(CO)C(=O)N(c2ccc(Cl)cc2)N1 (centres undefined)
3. O=C(O)CNS(=O)(=O)c1ccc(Oc2ccc(S(=O)(=O)NCC(=O)O)cc2)cc1
4. CC(C)C(=O)Nc1ccc(-c2nc(-c3cccc(O)c3)c(-c3ccnc(Br)c3)[nH]2)cc1

[A]
[83.5, 103, 113, -40.5]

Please state, for each entry, its recorded growth.
1. Cc1ccc(C2CC(c3ccc(Nc4nc(NCCO)nc(Nc5ccc(Cl)cc5)n4)cc3)=Nc3c(N)nc(N)nc3N2)cc1 (centres undefined)
2. CCN1C/C(=N\S(=O)(=O)c2ccccc2)N(CC)C1=S
3. Cc1cc2nc(C(Cl)Cl)nc(-c3ccco3)n2n1

[A]
28.9
103
20.3

// for each molecule below, give its growth
1. COc1ccccc1/C=C/C=N/NC1=NC2C(S1)N(C)C(=O)N2c1ccccc1 (centres undefined)
2. Cc1ccc(-c2cc3nc(C(Cl)Cl)nc(-c4ccccc4)n3n2)cc1
3. O=c1oc2ccc(-c3ccc(F)cc3F)cc2c(=O)n1-c1cccc(C(F)(F)F)c1
4. O=C(COc1ccc(/C=C2\SC(=O)NC2=O)cc1)Nc1ccc(C(=O)/C=C/c2cc3ccccc3nc2Cl)cc1
5. Cc1nc(-c2cc3ccccc3c(N3CCN(C)CC3)n2)cs1
6. Oc1ccc(-c2nnc(SCc3ccc(O)c4ncccc34)n2-c2ccccc2)cc1

[A]
1. 9.01
2. 79.8
3. -17.3
4. 75.6
5. 93.1
6. 5.53
